- Test system: PPARg:RXRa 270nM:90nM, anti-RXR (NR concentration 270 nM, RXRa partner concentration 90 nM)
- ASSAY SUMMARY: PBM binding z-score (relative to random genomic background probes); higher = stronger binding; sequences stand for … in GC…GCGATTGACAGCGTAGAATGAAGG
QUANTITY KIND: PBM binding z-score

> print(dat)
                     polymer.sequence        quantity.kind  reported.result
1  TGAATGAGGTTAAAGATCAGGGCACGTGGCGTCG  PBM binding z-score             6.11
2  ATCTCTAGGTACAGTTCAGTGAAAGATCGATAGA  PBM binding z-score            0.647
3  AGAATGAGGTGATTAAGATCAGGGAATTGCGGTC  PBM binding z-score            0.415
4  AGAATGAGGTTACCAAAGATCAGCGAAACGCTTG  PBM binding z-score             2.59
5  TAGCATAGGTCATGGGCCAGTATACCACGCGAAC  PBM binding z-score             5.31
6  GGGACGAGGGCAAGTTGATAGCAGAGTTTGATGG  PBM binding z-score              1.2

* * *

Below, each of the sequences is paired with its reported PBM binding z-score value.
- Test system: RARa:RXR (NR concentration 270 nM, RXRa partner concentration 90 nM)
- ASSAY SUMMARY: PBM binding z-score (relative to random genomic background probes); higher = stronger binding; sequences stand for … in GC…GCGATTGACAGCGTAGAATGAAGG
QUANTITY KIND: PBM binding z-score

> print(dat)
                      polymer.sequence        quantity.kind  reported.result
 1  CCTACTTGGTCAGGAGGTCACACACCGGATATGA  PBM binding z-score             4.89
 2  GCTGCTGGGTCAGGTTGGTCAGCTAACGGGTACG  PBM binding z-score            0.539
 3  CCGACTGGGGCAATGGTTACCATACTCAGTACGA  PBM binding z-score           -0.309
 4  GGAACGAGGGCAAAGATGATAGCATCTGTCGACG  PBM binding z-score            0.189
 5  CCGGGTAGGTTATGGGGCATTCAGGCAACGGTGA  PBM binding z-score             0.51
 6  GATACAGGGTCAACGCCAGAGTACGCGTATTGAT  PBM binding z-score             5.05
 7  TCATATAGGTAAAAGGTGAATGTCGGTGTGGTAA  PBM binding z-score             2.97
 8  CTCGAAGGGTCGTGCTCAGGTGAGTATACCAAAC  PBM binding z-score             2.56
 9  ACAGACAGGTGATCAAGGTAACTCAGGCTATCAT  PBM binding z-score             0.35
10  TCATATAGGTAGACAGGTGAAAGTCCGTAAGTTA  PBM binding z-score            0.512
11  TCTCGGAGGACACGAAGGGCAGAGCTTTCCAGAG  PBM binding z-score           -0.136
12  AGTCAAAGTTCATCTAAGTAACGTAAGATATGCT  PBM binding z-score             3.48
13  CAAACTAGGTCACGAAAGGTCAATGTCGAATGAC  PBM binding z-score              7.1
14  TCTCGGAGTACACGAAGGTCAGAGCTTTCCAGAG  PBM binding z-score                2
15  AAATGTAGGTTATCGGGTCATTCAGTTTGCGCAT  PBM binding z-score             3.72
16  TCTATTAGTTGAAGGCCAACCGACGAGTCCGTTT  PBM binding z-score             0.79
17  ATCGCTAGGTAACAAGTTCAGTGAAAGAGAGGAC  PBM binding z-score             0.46
18  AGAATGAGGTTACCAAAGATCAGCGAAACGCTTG  PBM binding z-score             2.13
19  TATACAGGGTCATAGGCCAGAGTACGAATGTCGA  PBM binding z-score             5.18
20  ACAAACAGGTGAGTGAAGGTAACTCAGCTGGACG  PBM binding z-score            0.192
21  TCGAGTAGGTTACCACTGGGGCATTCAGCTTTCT  PBM binding z-score           0.0985
22  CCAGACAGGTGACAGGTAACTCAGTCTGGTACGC  PBM binding z-score           0.0624
23  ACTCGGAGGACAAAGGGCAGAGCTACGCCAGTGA  PBM binding z-score            0.077
24  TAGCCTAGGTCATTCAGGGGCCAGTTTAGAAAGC  PBM binding z-score             3.52
25  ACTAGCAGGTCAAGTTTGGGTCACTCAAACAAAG  PBM binding z-score             5.89
26  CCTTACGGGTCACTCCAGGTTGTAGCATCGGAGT  PBM binding z-score             3.84
27  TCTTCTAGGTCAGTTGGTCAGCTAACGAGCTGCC  PBM binding z-score             1.58
28  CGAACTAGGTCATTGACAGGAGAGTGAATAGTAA  PBM binding z-score             1.99
29  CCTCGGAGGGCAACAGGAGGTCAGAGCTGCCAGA  PBM binding z-score             3.63
30  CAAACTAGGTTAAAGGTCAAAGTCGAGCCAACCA  PBM binding z-score              7.9
31  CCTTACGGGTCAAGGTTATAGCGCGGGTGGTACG  PBM binding z-score             3.94
32  GGAACGAGGGCAAAATTGATAGCATCTGTCGACG  PBM binding z-score            0.355
33  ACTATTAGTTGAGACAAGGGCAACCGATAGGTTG  PBM binding z-score            0.553
34  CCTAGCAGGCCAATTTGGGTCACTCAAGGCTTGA  PBM binding z-score             1.52
35  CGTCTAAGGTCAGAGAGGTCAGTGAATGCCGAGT  PBM binding z-score             5.99
36  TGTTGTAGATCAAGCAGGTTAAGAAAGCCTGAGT  PBM binding z-score             0.16
37  CAAACTAGGTCACAGAGGTCAAATTCCGTGCGTA  PBM binding z-score             7.83
38  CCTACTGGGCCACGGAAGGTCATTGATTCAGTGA  PBM binding z-score             3.15
39  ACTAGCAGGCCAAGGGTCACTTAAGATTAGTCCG  PBM binding z-score             4.13
40  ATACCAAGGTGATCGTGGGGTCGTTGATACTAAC  PBM binding z-score             2.65
41  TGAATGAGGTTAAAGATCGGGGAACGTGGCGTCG  PBM binding z-score              2.5
42  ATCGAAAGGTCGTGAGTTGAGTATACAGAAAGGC  PBM binding z-score              3.9
43  CAAACTAAGTCACCGGAAGGTCAAAGTCCGCATG  PBM binding z-score             4.43
44  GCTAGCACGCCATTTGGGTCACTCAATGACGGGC  PBM binding z-score            0.592
45  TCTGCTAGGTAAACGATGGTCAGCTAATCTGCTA  PBM binding z-score           -0.233
46  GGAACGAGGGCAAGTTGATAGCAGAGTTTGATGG  PBM binding z-score            0.145
47  TAGCCTAGGTCATTGGGCCAGTATCGTACGCATC  PBM binding z-score             2.39
48  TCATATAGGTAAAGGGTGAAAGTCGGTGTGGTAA  PBM binding z-score             2.03
49  GTGACTGGGGCAAAGCAGGTTACCATAAGGTTGG  PBM binding z-score             1.99
50  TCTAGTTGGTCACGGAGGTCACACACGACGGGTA  PBM binding z-score             4.53
51  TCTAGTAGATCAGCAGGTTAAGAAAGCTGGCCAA  PBM binding z-score            0.387
